# Target Or System: AR (Rattus norvegicus, UniProt P15207)
# Sequence (P15207 651-902 limits assumed): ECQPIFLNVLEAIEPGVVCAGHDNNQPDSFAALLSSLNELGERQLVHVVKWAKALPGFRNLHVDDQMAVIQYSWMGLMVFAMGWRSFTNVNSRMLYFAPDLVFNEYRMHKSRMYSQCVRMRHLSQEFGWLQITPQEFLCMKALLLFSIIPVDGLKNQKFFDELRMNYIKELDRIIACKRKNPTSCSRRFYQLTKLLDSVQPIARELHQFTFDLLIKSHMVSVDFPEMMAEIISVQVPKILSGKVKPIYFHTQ
# Assay Remarks: PolarScreen AR Competitor binding affinity assay
Value Type: pEC50
In plain terms, pEC50 is the concentration in mol/L turned into minus its base-10 logarithm.

AR (Rattus norvegicus, UniProt P15207) assay, compound Oc1ccc(Cl)cc1Cc1ccccc1 , recorded pEC50 = 5.67

----------
# Target Or System: firefly luciferase (Photinus pyralis, UniProt P08659)
# Construct: Only implied by 'CP' in the vector name, from my own knowledge; expressed in transfected cells; host or cells: GH3.TRE-Luc cells induced with 0.25 nM T3, lysate
# Sequence (P08659 whole entry): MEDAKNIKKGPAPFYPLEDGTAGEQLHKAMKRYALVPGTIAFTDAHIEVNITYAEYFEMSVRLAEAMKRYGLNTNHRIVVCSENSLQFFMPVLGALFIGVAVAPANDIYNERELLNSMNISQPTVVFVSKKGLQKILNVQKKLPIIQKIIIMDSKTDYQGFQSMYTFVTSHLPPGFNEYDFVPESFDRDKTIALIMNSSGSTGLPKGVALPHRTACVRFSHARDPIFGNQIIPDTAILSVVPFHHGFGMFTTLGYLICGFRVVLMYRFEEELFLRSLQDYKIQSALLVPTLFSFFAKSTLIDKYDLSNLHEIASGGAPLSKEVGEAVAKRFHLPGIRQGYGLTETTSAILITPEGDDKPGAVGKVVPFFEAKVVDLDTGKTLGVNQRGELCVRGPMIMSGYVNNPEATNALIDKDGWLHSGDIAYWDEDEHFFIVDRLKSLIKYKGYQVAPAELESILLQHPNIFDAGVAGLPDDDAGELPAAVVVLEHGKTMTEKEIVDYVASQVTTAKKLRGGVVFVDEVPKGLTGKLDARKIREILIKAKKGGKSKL
# Assay Remarks: Luciferase inhibition assay in GH3.TRE-Luc cell lysates
# Format: biochemical
# Protocol Conditions: cell lysate, read-out: inhibition of firefly luciferase luminescence signal
# Experimental: Serial dilutions for each treatment were prepared in the cell lysate and incubated at room temperature for 30 min.
Value Type: inhibition at 50 µM

Below, each entry is followed by its recorded inhibition at 50 µM result.
| Molecule | Data Value |
| --- | --- |
| Oc1cc(Cl)ccc1Oc1ccc(Cl)cc1Cl | ~12% |
| O=C(Nc1ccc(Cl)cc1)Nc1ccc(Cl)c(Cl)c1 | 46.7% |
| CC(C)(C)C(=O)C(Oc1ccc(Cl)cc1)n1ccnc1 (stereo not shown) | ~12% |

Switching to the query record.
Value sought: inhibition at 50 µM, system firefly luciferase (Photinus pyralis, UniProt P08659), item Oc1ccc(Cl)cc1Cc1ccccc1 . Result: ~12%

This collection of values is drawn from paper PMC7567334.
